target or system: Human PI3K beta (Homo sapiens, UniProt P42338)
Construct: His (N); host or cells: SF9 insect cells (baculovirus)
Sequence (P42338 whole entry): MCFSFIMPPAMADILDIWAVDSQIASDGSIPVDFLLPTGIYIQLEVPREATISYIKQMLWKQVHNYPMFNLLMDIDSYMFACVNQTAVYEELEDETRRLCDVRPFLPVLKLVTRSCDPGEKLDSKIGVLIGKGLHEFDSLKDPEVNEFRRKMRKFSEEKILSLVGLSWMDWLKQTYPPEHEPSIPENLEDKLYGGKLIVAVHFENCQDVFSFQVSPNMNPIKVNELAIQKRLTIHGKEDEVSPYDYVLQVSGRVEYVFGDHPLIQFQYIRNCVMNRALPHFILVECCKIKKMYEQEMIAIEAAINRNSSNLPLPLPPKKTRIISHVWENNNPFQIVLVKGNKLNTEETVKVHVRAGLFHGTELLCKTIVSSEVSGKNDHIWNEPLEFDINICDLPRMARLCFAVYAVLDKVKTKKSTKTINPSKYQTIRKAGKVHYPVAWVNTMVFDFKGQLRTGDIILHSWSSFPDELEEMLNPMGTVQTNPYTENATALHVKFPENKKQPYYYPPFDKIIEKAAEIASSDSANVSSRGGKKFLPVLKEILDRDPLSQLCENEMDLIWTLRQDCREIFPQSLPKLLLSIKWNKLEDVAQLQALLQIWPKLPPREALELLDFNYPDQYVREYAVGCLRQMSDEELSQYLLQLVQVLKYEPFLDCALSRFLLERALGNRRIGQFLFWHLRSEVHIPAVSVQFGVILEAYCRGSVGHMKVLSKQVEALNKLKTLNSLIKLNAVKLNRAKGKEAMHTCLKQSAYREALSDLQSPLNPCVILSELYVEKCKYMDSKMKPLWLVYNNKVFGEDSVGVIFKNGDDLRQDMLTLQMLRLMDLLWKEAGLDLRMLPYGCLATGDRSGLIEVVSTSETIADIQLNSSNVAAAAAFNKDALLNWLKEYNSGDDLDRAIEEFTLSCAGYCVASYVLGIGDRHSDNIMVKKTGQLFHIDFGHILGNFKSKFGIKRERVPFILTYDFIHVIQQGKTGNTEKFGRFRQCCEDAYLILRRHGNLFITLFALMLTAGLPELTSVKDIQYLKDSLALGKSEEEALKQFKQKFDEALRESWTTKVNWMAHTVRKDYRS
Sequence (P27986 whole entry partner): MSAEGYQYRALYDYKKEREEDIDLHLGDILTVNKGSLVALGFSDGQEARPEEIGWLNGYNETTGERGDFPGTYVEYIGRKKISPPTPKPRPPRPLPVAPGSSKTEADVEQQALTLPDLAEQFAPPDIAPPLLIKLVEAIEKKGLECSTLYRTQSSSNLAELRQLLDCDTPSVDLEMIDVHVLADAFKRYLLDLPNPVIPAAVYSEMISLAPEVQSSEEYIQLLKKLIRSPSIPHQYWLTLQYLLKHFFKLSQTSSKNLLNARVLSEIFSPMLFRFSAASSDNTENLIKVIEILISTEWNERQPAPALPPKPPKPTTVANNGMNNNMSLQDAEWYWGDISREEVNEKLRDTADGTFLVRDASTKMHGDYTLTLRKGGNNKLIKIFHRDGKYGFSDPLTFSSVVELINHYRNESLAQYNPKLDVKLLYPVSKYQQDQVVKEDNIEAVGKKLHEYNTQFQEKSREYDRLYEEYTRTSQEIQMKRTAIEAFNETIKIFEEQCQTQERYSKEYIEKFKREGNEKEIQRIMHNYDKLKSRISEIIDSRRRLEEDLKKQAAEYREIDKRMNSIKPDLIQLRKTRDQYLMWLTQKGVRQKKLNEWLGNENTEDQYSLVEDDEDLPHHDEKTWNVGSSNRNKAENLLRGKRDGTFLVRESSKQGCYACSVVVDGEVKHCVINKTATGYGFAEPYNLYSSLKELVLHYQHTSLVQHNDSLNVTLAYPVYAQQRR
assay notes: Human PI3K beta enzyme assay (HTRF)
Type: biochemical
condition summary: concentration not given; b1387 states 1.1 μM for PI3K α and β; read-out: p110 beta Percent Inhibition
# reported inhibition at 1.1 µM; entries follow

molecule: N#Cc1c(N2CCOCC2)sc(C(=O)O)c1C(CCF)c1ccc2ccccc2c1 (centres unmarked)
inhibition at 1.1 µM (%): 104
--
molecule: COC(=O)Nc1cc(-c2sc(C(=O)O)c(Cc3ccc4ccccc4c3)c2C#N)ccn1
inhibition at 1.1 µM (%): 102
--
molecule: O=C(O)c1sc(N2CCOCC2)nc1Cc1ccc2cc[nH]c2c1
inhibition at 1.1 µM (%): 98
--
molecule: OC(c1ccc(F)cc1Cl)c1cc(-c2ccncc2)sc1-c1nnc[nH]1 (centres unmarked)
inhibition at 1.1 µM (%): 95
--
molecule: OC(c1ccc(F)c(F)c1)c1cc(-c2ccncc2)sc1-c1nnc[nH]1 (centres unmarked)
inhibition at 1.1 µM (%): 64
--
molecule: N#Cc1c(N2CCOCC2)sc(C(=O)O)c1Cc1cc2ccc(Cl)cc2[nH]1
inhibition at 1.1 µM (%): 109
--
molecule: N#Cc1c(N2CCOCC2)sc(C(=O)O)c1Cc1ccc2ccncc2c1
inhibition at 1.1 µM (%): 101
--
molecule: CC(=O)Nc1cc(-c2cc(C(c3ccc(Cl)cc3)N(C)C3CCNCC3)c(-c3nnc[nH]3)s2)ccn1 (centres unmarked)
inhibition at 1.1 µM (%): 98
